tested on: SNB-78; test: NCI tumour cell line growth inhibition, 48 h
Activity calls are given as the source filed them. Rule as the data show it: active = GI50 up to about 1.1 µM and inactive = higher.
Entry note: the call must match one of 1 (active), 0 (inactive)

Request: Record lookup: outcome of this test for CCC(C)C1NC(=O)CNC(=O)C2Cc3c([nH]c4cc(O)ccc34)[S+]([O-])CC(NC(=O)CNC1=O)C(=O)NC(CC(=O)O)C(=O)N1CC(O)CC1C(=O)NC(C(C)C(O)CO)C(=O)N2 (stereo not given) ?
Result: 1

Request: Record lookup: outcome of this test for COC(=O)C(Cc1cc(OC)c(OC)c(OC)c1)(NC(=O)c1ccccc1)P(=O)(OC)OC (stereo not given) ?
Result: 0

Request: Record lookup: outcome of this test for O=c1[nH]c2nc3ccccc3c(=O)n2nc1Cc1ccccc1 ?
Result: 0

Request: Record lookup: outcome of this test for O=C1OCc2nc3c(c(-c4ccccc4C(F)(F)F)c21)C(=O)OC3 ?
Result: 0

Request: Record lookup: outcome of this test for CC(/C=C/C(=O)c1sc(-n2nc(-c3ccccc3)cc2-c2ccccc2)nc1C)=C\c1ccccc1 ?
Result: 0

Request: Record lookup: outcome of this test for N#C/N=C1\NC(Cc2ccccc2)C(=O)N1CCc1c[nH]c2ccccc12 (stereo not given) ?
Result: 0

Request: Record lookup: outcome of this test for COc1ccc(CC(N)=O)cc1OC ?
Result: 0

Request: Record lookup: outcome of this test for COc1ccc(/C=N/NS(=O)(=O)c2ccccc2)cc1 ?
Result: 0

Request: Record lookup: outcome of this test for COc1ccccc1C1C(C(=O)Nc2ccccc2)=C(C)NC(C)=C1C(=O)Nc1ccccc1 ?
Result: 0

Request: Record lookup: outcome of this test for CC(=O)c1c(C)[n+]([O-])c2cc(C)c(C)cc2[n+]1[O-] ?
Result: 0

====

system: MCF7; experiment: NCI tumour cell line growth inhibition, 48 h
The source made the active and inactive calls. Cut-off read from the data, not from the text of the source: active = GI50 up to about 1.1 µM and inactive = higher.
Entry note: the call must match one of TRUE = active, FALSE = inactive

Request: Record lookup: outcome of this test for COc1cc(N(Cc2ccc3oc(=O)c(-c4ccccc4)nc3c2)Cc2ccc3oc(=O)c(-c4ccccc4)nc3c2)cc(OC)c1OC ?
Result: FALSE

Request: Record lookup: outcome of this test for CC(C)(C)NC1=NC(C(F)(F)F)(C(F)(F)F)NC(=O)N1 ?
Result: FALSE

Request: Record lookup: outcome of this test for O=C1CCCC1CC(CN1CCOCC1)Sc1nnnn1-c1ccccc1 (centres undefined) ?
Result: FALSE

Request: Record lookup: outcome of this test for COc1cc(/C=C/C(=N\NC(=S)NN)c2sc(NNC(C)=O)nc2C)ccc1O ?
Result: FALSE

Request: Record lookup: outcome of this test for COc1ccc(/N=N/C(=N\c2ccccc2)c2ccc(N(CCC#N)CCC#N)cc2)cc1 ?
Result: FALSE

Request: Record lookup: outcome of this test for COC(=O)/C=C/C1(O)C=CC(=O)C=C1 ?
Result: FALSE

Request: Record lookup: outcome of this test for CN1C2CC(=O)CC1[C@@H]1OC(c3ccccc3)O[C@H]21 (some centres undefined) ?
Result: FALSE

Request: Record lookup: outcome of this test for CC(C)OC(=S)Nc1ccc(Cl)c(/C=N/OC(C)(C)C)c1 ?
Result: FALSE

Request: Record lookup: outcome of this test for Clc1ccccc1-c1nc2cc(C34CC5CC(CC(C5)C3)C4)ccc2[nH]1 ?
Result: FALSE

Request: Record lookup: outcome of this test for CN(C)CCCn1cnc2cc(Cl)c(Cl)cc21 ?
Result: FALSE

Request: Record lookup: outcome of this test for CC[C@@]1(CCC(=O)NCCc2c[nH]c3ccccc23)CCC(=O)N2CCc3c([nH]c4ccccc34)[C@H]21 ?
Result: FALSE

Request: Record lookup: outcome of this test for CC(=O)O[C@H]1CC[C@@]2(C)C(=CC[C@@H]3[C@@H]2CC[C@]2(C)c4c(C)nn(-c5ccccc5)c4C[C@@H]32)C1 ?
Result: FALSE

Request: Record lookup: outcome of this test for CCCCCCc1cc2cc(C(=O)Nc3ccccc3F)c(=N)oc2cc1O ?
Result: FALSE

Request: Record lookup: outcome of this test for O=[N+]([O-])c1ccc(Oc2c(Cl)cc(S(=O)(=O)N/C(=N\O)Nc3ccc(Cl)cc3)cc2Cl)cc1 ?
Result: FALSE

Request: Record lookup: outcome of this test for CCc1nc(N)nc(N)c1-c1ccc(N2CCNCC2)c([N+](=O)[O-])c1 ?
Result: FALSE

Request: Record lookup: outcome of this test for COc1ccc([C@H](NC(=O)c2ccccc2)[C@@H](O)C(=O)O[C@H]2C[C@@]3(O)C(OC(=O)c4ccccc4)C4[C@](C)(C(=O)[C@H](OC(C)=O)C(=C2C)C3(C)C)[C@@H](O)C[C@H]2OC[C@@]42OC(C)=O)cc1 (some centres undefined) ?
Result: TRUE

Request: Record lookup: outcome of this test for CC(O)(CCCCCl)c1nc2ccccc2s1 (centres undefined) ?
Result: FALSE

Request: Record lookup: outcome of this test for CSc1c(C)[n+]([O-])c2cc(Cl)c(Cl)cc2[n+]1[O-] ?
Result: FALSE

Request: Record lookup: outcome of this test for O=S(=O)(N=[Se](=O)(c1ccccc1)c1ccccc1)c1ccccc1 ?
Result: FALSE
